- test description: Liver microsomal metabolic stability, human liver microsomes (HLM)
- test conditions: human, liver microsomes
measured quantity: half-life at 1 μM

CC1CCn2nc(-c3c(Cl)cnn3C(C)C)cc2N1Cc1ccc(-c2nc(C(F)(F)F)cn2C(C)C)c(F)c1 (centres unmarked)	< 25 min

Q) Name the recorded half-life at 1 μM for Cc1cnn(C(C)C)c1-c1nc2n(n1)CCC(=O)N2Cc1ccc(-c2nc(C(F)(F)F)cn2C(C)C)cc1 .
A) < 25 min

Q) Name the recorded half-life at 1 μM for CCn1cc(C(F)(F)F)nc1-c1ccc(CN2C(=O)CCn3nc(-c4c(Cl)cnn4C(C)C)nc32)cn1 .
A) > 25 min

Q) Name the recorded half-life at 1 μM for CC(C)n1cc(C(F)(F)F)nc1-c1ccc(CN2C(=O)CCn3nc(-c4c(Cl)cnn4C(C)C)nc32)cc1 .
A) > 25 min
